System: KRas-mediated phosphorylation of ERK in MKN1 cells
assay.details: Inhibition of KRas-mediated phosphorylation of ERK (Cisbio HTRF pERK), MKN1 cells
Type: cell-based
condition.context: Homo sapiens, MKN-1
IC50 reference

molecule	IC50 / nM
C[C@@]1(O)CCCN(c2nc(OCC34CCCN3CCC4)nc3c(F)c(-c4c(C5CC5)c(Cl)cc5[nH]ncc45)ncc23)C1	112
O=S1(=O)NCC2(CCCN(c3nc(OC[C@@]45CCCN4C[C@H](F)C5)nc4c(F)c(-c5c6ccccc6cc6[nH]ncc56)ncc34)C2)N1 (stereo partly drawn)	139
CCc1c(F)ccc2cc(O)cc(-c3ncc4c(N5CCC[C@@](C)(O)C5)nc(OC[C@@]56CCCN5C[C@H](F)CC6)nc4c3F)c12	22

###

target.or.test.system: KRas^G12S (Homo sapiens, UniProt P01116, G12S)
Construct: Biotinylated KRas (corresponding to amino acids 1-169, produced at Accelegan Inc.); biotin (biotinylated); purchased Accelegan Inc
Sequence (P01116 1-169 isoform P01116-2 G12S): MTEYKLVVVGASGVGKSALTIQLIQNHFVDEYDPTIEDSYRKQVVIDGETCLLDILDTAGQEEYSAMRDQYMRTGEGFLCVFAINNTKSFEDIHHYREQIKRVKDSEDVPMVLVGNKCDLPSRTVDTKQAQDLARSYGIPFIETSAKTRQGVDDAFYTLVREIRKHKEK
assay.details: KRas binding assay (TR-FRET tracer displacement), KRas G12S
condition.context: TR-FRET tracer displacement, KRas G12S

compound	readout.unit	value.modifier	IC50
C/C=C1\CN2CCCC2(COc2nc(N3C[C@@H]4C[C@H](C3)[C@H](O)C4)c3cnc(-c4cc(O)cc5ccc(F)c(CC)c45)c(F)c3n2)C1 (stereo partly drawn)	nM	<	2
CCc1c(F)ccc2cc(O)cc(-c3ncc4c(N5C[C@@H]6C[C@H](C5)[C@H](O)C6)nc(OCC56CCCN5C/C(=C/F)C6)nc4c3F)c12 (stereo partly drawn)	nM	<	2
Cc1cc2c(c(-c3ncc4c(N5CCC[C@@](C)(O)C5)nc(OCC56CCCN5CCC6)nc4c3F)c1C)CC(=O)N2	nM	=	475
Cc1cccc2c(-c3ncc4c(N5C[C@@H]6C[C@H](C5)[C@H](O)C6)nc(OC[C@@]56CCCN5C[C@H](F)C6)nc4c3F)cc(O)cc12	nM	=	61
Oc1cc(-c2ncc3c(N4C[C@@H]5C[C@H](C4)[C@H](O)C5)nc(OC[C@@]45CCCN4C[C@H](F)C5)nc3c2F)c2ccccc2c1	nM	=	8
CN(C)C(=O)c1cc2n(n1)CCCN(c1nc(OCC34CCCN3CCC4)nc3c(F)c(-c4c5ccccc5cc5[nH]ncc45)ncc13)C2	nM	=	43
Cc1cc2[nH]nnc2c(-c2ncc3c(N4CCCC5(CNS(=O)(=O)N5)C4)nc(OCC45CCCN4CCC5)nc3c2F)c1C (stereo not drawn)	nM	=	18
CCc1c(F)ccc2cc(O)cc(-c3ncc4c(N5C[C@@H]6C[C@H](C5)[C@H](O)C6)nc(OC[C@@H]5CC[C@H]6COCCN65)nc4c3F)c12	nM	<	2
Cc1c(Cl)cc2[nH]ncc2c1-c1ncc2c(N3CCC[C@]4(C3)NC(=O)NC4=O)nc(OCC34CCCN3CCC4)nc2c1F	nM	=	824
Oc1cc(Cl)c(C2CC2)c(-c2ncc3c(N4CCC[C@]5(C4)C[C@H](O)C5)nc(OCC45CCCN4CCC5)nc3c2F)c1	nM	=	2
CCc1c(F)ccc2cc(O)cc(-c3ncc4c(N5C[C@@H]6C[C@H](C5)[C@H](O)C6)nc(OCC56CCCN5C/C(=C\F)C6)nc4c3F)c12 (stereo partly drawn)	nM	<	2
C=C1CN2CCCC2(COc2nc(N3C[C@@H]4C[C@H](C3)[C@H](O)C4)c3cnc(-c4cc(O)cc5ccc(F)c(CC)c45)c(F)c3n2)C1 (stereo partly drawn)	nM	<	2

###

target.or.test.system: KRas^G13D (Homo sapiens, UniProt P01116, G13D)
Construct: Biotinylated KRas (corresponding to amino acids 1-169, produced at Accelegan Inc.); biotin (biotinylated); purchased Accelegan Inc
Sequence (P01116 1-169 isoform P01116-2 G13D): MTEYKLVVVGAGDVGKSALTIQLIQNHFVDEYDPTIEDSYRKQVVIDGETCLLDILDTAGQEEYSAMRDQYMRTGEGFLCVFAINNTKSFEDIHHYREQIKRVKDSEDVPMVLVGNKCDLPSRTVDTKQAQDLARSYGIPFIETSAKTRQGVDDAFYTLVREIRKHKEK
assay.details: KRas binding assay (TR-FRET tracer displacement), KRas G13D
condition.context: TR-FRET tracer displacement, KRas G13D

molecule	value.modifier	IC50 (nM)
Cc1cc2[nH]ncc2c(-c2ncc3c(N4CCC[C@]5(C4)NC(=O)NC5=O)nc(OC[C@@]45CCCN4C[C@H](F)C5)nc3c2F)c1C [Example 731]	=	13
O=S1(=O)NCC2(CCCN(c3nc(OCC45CCCN4CCC5)nc4c(F)c(-c5c6ccccc6cc6[nH]ncc56)ncc34)C2)N1 (stereo not drawn) [Example 758]	<	2
C[C@@]1(O)CCCN(c2nc(OCC34CCCN3CCC4)nc3c(F)c(-c4ccc(F)c5sc(N)nc45)ncc23)C1 [Example 735]	=	2140
Oc1cc(Cl)c(C2CC2)c(-c2ncc3c(N4CCC[C@]5(C4)C[C@@H](O)C5)nc(OCC45CCCN4CCC5)nc3c2F)c1 [Example 743]	=	9
Cc1cc2[nH]ncc2c(-c2ncc3c(N4CCCn5nc(C(=O)N(C)C)cc5C4)nc(OCC45CCCN4CCC5)nc3c2F)c1C [Example 730]	=	513
Oc1cc(-c2ncc3c(N4C[C@@H]5C[C@H](C4)[C@H](O)C5)nc(OC[C@@]45CCCN4C[C@H](F)C5)nc3c2F)c2ccccc2c1Br [Example 781]	=	551

###

IC50 reference
target.or.test.system: KRas^G12D (Homo sapiens, UniProt P01116, G12D)
Construct: Biotinylated KRas (corresponding to amino acids 1-169, produced at Accelegan Inc.); biotin (biotinylated); purchased Accelegan Inc
Sequence (P01116 1-169 isoform P01116-2 G12D): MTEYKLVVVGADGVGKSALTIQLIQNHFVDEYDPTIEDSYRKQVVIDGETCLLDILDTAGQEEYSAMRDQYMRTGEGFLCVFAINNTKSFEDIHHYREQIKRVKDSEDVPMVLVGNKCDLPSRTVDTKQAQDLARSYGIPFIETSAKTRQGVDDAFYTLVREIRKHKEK
assay.details: KRas binding assay (TR-FRET tracer displacement), KRas G12D

molecule	readout.unit	value.modifier	IC50
CN(C)C(=O)c1cc2n(n1)CCCN(c1nc(OCC34CCCN3CCC4)nc3c(F)c(-c4cc(O)cc(Cl)c4C4CC4)ncc13)C2	nM	<	2
CCc1c(F)ccc2cc(O)cc(-c3ncc4c(N5CCC(Cn6cccn6)C5)nc(OC[C@@]56CCCN5C[C@H](F)C6)nc4c3F)c12 (stereo partly drawn)	nM	=	323
CCc1c(F)ccc2cc(O)cc(-c3ncc4c(NS(=O)(=O)C[C@H]5CNCCO5)nc(OC[C@@]56CCCN5C[C@H](F)C6)nc4c3F)c12	nM	=	1220
CCc1c(F)ccc2cc(O)cc(-c3ncc4c(N5CCC[C@@]6(CC[S@+]([O-])C6)C5)nc(OC[C@@]56CCCN5C[C@H](F)C6)nc4c3F)c12 (single isomer, unassigned)	nM	=	19
CCc1c(F)ccc2cc(O)cc(-c3ncc4c(N5CC6(CO)CC(C7CCCC7)(C5)C6)nc(OC[C@@]56CCCN5C[C@H](F)C6)nc4c3F)c12	nM	=	9120
CCc1c(F)ccc2cc(O)cc(-c3ncc4c(NCC5(C)CC(=O)NC5=O)nc(OC[C@@]56CCCN5C[C@H](F)C6)nc4c3F)c12 (stereo partly drawn)	nM	=	3
CCc1c(F)ccc2cc(O)cc(-c3ncc4c(N5CCC(O)C(F)(F)CC5)nc(OC[C@@]56CCCN5C[C@H](F)C6)nc4c3F)c12 (stereo partly drawn)	nM	=	6
CN(C)C(=O)c1cc2n(n1)CCCN(c1nc(OC[C@@]34CCCN3C[C@H](F)C4)nc3c(F)c(-c4c(C5CC5)c(Cl)cc5[nH]ncc45)ncc13)C2	nM	=	2
Oc1cc(-c2ncc3c(N4C[C@@H]5C[C@H](C4)[C@H](O)C5)nc(OC[C@@]45CCCN4C[C@H](F)C5)nc3c2F)c2ccccc2c1Cl	nM	=	5530
Oc1cc(-c2ncc3c(N4CCCC5(CCO5)C4)nc(OC[C@@]45CCCN4C[C@H](F)C5)nc3c2F)c2c(Cl)c(F)ccc2c1 (stereo partly drawn)	nM	=	3
CCc1c(F)ccc2cc(O)cc(-c3ncc4c(N5CC6(CO)CC5CCO6)nc(OC[C@@]56CCCN5C[C@H](F)C6)nc4c3F)c12 (stereo partly drawn)	nM	=	1970
C[C@@H]1C[C@@H]1c1c(Cl)cc(O)cc1-c1ncc2c(N3CC4CCC(C3)N4)nc(OC[C@@]34CCCN3C/C(=C\F)C4)nc2c1F	nM	<	2

###

inhibition at 0.01 µM reference
target.or.test.system: KRas^G12S (Homo sapiens, UniProt P01116, G12S)
Construct: Biotinylated KRas (corresponding to amino acids 1-169, produced at Accelegan Inc.); biotin (biotinylated); purchased Accelegan Inc
assay.details: KRas binding assay (TR-FRET tracer displacement), KRas G12S
condition.context: single point, 10 nM compound, TR-FRET
measured.quantity: inhibition at 0.01 µM (%)

compound	reported.value
CCc1c(F)ccc2cc(O)cc(-c3ncc4c(N5CCC[C@]6(CCO6)C5)nc(OCC5(CN(C)C)CC5)nc4c3F)c12	93
CN(C)C(=O)OC[C@@H]1CC[C@@]2(COc3nc(N4CCC[C@@](C)(O)C4)c4cnc(-c5cc(O)cc6ccc(F)c(F)c56)c(F)c4n3)CCCN12	79
CCc1c(F)ccc2cc(O)cc(-c3ncc4c(N5CCCC6(CNS(=O)(=O)N6)C5)nc(OC[C@]56CCCN5[C@H](COC(=O)N(C)C)CC6)nc4c3F)c12 (some centres unmarked)	95
CCc1c(F)ccc2cc(O)cc(-c3ncc4c(N5CCC[C@@](C)(O)C5)nc(OC[C@@]56CCCN5[C@H](COC(=O)N5CCCC5)CC6)nc4c3F)c12	97
CCc1c(F)ccc2cc3[nH]ncc3c(-c3ncc4c(N5CCC[C@@](C)(O)C5)nc(OC[C@@]56CCCN5C[C@H](F)C6)nc4c3F)c12	83
